meta.source: paper PMC12716216

# Eexp listing for each entry below
molecular target: human serum albumin (HSA) (Homo sapiens); test: Fluorescence ligand titration of HSA: quenching of intrinsic protein (Trp214) fluorescence, fitted Kd, n and FRET efficiency; conditions: excitation 280 nm, no correction
Sequence (P02768 25-609): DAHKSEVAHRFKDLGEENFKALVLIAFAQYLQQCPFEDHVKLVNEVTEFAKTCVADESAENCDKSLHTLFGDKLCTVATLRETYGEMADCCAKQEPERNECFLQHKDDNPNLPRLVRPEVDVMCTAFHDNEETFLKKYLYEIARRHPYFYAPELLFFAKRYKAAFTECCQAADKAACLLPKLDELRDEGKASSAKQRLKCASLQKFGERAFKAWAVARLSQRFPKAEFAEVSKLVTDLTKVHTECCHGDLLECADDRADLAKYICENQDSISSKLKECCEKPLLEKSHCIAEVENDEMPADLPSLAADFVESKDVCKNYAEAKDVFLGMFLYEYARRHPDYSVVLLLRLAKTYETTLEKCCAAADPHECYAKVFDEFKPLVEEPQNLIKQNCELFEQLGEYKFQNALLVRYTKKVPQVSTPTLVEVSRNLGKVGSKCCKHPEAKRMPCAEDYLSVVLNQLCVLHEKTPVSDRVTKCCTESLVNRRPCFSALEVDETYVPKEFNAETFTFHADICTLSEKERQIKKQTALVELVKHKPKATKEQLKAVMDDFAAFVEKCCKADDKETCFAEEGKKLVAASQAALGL

Requested read-out Eexp, target or system human serum albumin (HSA) (Homo sapiens), entry NCCNc1cccc2ccccc12
0.57± 0.03

API: value(readout=Eexp, system=human serum albumin (HSA) (Homo sapiens)) for record O=C(O)c1c2ccccc2nc2ccccc12
0.75± 0.02

Tell me reported Eexp for O=C(O)COc1cccc2cccnc12 , tested with human serum albumin (HSA) (Homo sapiens).
0.80± 0.01

Eexp of C[C@H](C(=O)O)c1ccc2c(c1)[nH]c1ccc(Cl)cc12 [(S)‐carprofen] on human serum albumin (HSA) (Homo sapiens)?
0.89± 0.02

State its Eexp on human serum albumin (HSA) (Homo sapiens): Oc1ccc2ccccc2c1
0.87± 0.03
